Assign yeast fitness to each entry below.
B1: tRNA (parent)
chain: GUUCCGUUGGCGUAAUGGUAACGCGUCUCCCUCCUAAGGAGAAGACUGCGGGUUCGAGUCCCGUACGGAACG

# Variants of: B1
# procedureDetails: yeast fitness relative to wild type (ratio to wild type); higher = fitter; tRNA-Arg(CCU), competitive growth, 37 C, YPD
Fewer inactive variants are shown than the library holds.

Example entries begin here.
>  <mutationId>
C4G C34U U35G A57G

>  <quantity>
yeast fitness

>  <resultValue>
≤ 0.5

$$$$
>  <mutationId>
A15G A20C C62G

>  <quantity>
yeast fitness

>  <resultValue>
0.731

$$$$
>  <mutationId>
C11A A57G

>  <quantity>
yeast fitness

>  <resultValue>
0.655

$$$$
>  <mutationId>
G39C G58A

>  <quantity>
yeast fitness

>  <resultValue>
0.876

$$$$
>  <mutationId>
G6A A20U G52C

>  <quantity>
yeast fitness

>  <resultValue>
≤ 0.5

$$$$

Provide the reported yeast fitness of each entry below, same order.
1. C5G U7A C11U A36C G38A G44C
2. C22G U28A C31G G39A C55A G68C
3. U16A U26A C49G C61A
4. U2A C49A C61G
5. C24A U59G C62U

## Output
0.589
≤ 0.5
0.586
0.505
≤ 0.5

Provide the reported yeast fitness of each entry below, same order.
1. G17C C61G C66U
2. G12A C22A A36G A37G A57U
3. C4U G9A
4. C4A U19G U35C U53C
5. G10A C24G G56A

## Output
1: ≤ 0.5; 2: ≤ 0.5; 3: 0.927; 4: ≤ 0.5; 5: ≤ 0.5

Provide the reported yeast fitness of each entry below, same order.
1. U35A G51C U54C A57U
2. G10C A21C C30U G41C A70U
3. C29U A45U U47C U54A

## Output
≤ 0.5
≤ 0.5
≤ 0.5

Provide the reported yeast fitness of each entry below, same order.
1. A20G G38C C46U G63U
2. G6A A20G A36G C49G C55U
3. A15G C33U A40G G51C A57U
4. C4G C31U G48C

## Output
≤ 0.5
≤ 0.5
≤ 0.5
0.647

Provide the reported yeast fitness of each entry below, same order.
1. C22U A40U U47C
2. C33U G48A A69C
3. A15U C33G C66U
4. A42G G68C
5. U26C A36U A45U G52C A57U
6. C11U C22U C34A A40U
7. A15U C29A C34G C62U G68A
8. A21U C34G A42U C61U

## Output
[0.544, 0.705, "≤ 0.5", 0.798, "≤ 0.5", "≤ 0.5", 0.616, "≤ 0.5"]

Provide the reported yeast fitness of each entry below, same order.
1. G23A C30U U35C
2. G9A C24G C34G
3. A21C A45U G48C C62U
4. C33G C55G G67A
5. A15U G38C G39A A43C A57U
6. C4G U7C C27A A70U
7. U2C C5G

## Output
1. ≤ 0.5
2. 0.633
3. ≤ 0.5
4. ≤ 0.5
5. ≤ 0.5
6. ≤ 0.5
7. 0.738

Provide the reported yeast fitness of each entry below, same order.
1. A14G C33G A70U
2. C5U C24U G41C A70C
3. C30A A42C G58A
4. U13C C31A C46U A70C
5. G39C A43G G44C A45U C49G G67C
6. G6A C11G
7. C4A C5U C34U U64G

## Output
1: 0.545; 2: ≤ 0.5; 3: ≤ 0.5; 4: ≤ 0.5; 5: 0.558; 6: 0.738; 7: 0.576

Provide the reported yeast fitness of each entry below, same order.
1. G9A C34G G38C
2. C27U G38C A57G A65C

## Output
["≤ 0.5", "≤ 0.5"]

Provenance of the data: the RNAGym collection of RNA variant scans (doi:10.1126/science.aae0568)
